- ASSAYED SYSTEM: NHE3 (UniProt P48764)
- ASSAY PROCEDURE: Cell-based NHE3 activity under persistent conditions (60 min pre-incubation, compound removed)
- Parameters: species or system Rat or Human
- REPORTED CONDITIONS: opossum kidney cells expressing NHE3, read-out: Cell-based NHE3 inhibition IC50 (uM) under persistent conditions
PARAMETER MEASURED: IC50 (µM)

Some solved cases for reference:
COMPOUND	UNIT SYMBOL	IC50
CN1Cc2c(Cl)cc(Cl)cc2C(c2ccc3c(c2)S(=O)(=O)N(CCOCCOCCNC(=O)NCCCCNC(=O)NCCOCCOCCN2CCc4ccc(C5CN(C)Cc6c(Cl)cc(Cl)cc65)cc4S2(=O)=O)CC3)C1 (centres unmarked)	µM	0.59
CN1Cc2c(Cl)cc(Cl)cc2C(c2ccc3cn(CCOCCOCCNC(=O)NCCCCNC(=O)NCCOCCOCCn4cc5ccc(C6CN(C)Cc7c(Cl)cc(Cl)cc76)cc5n4)nc3c2)C1 (centres unmarked) [Embodiment D1-P1]	µM	0.02
CN1Cc2c(Cl)cc(Cl)cc2C(c2ccc3c(c2)S(=O)(=O)N(CCOCCOCCNC(=O)NCCCCNC(=O)NCCOCCOCCN2C=Cc4ccc(C5CN(C)Cc6c(Cl)cc(Cl)cc65)cc4S2(=O)=O)C=C3)C1 (centres unmarked) [Embodiment E1]	µM	0.05

[A] CN1Cc2c(Cl)cc(Cl)cc2C(c2ccc3ccn(CCOCCOCCNC(=O)NCCCCNC(=O)NCCOCCOCCn4ccc5ccc(C6CN(C)Cc7c(Cl)cc(Cl)cc76)cc5c4=O)c(=O)c3c2)C1 (centres unmarked)
[B] CN1Cc2c(Cl)cc(Cl)cc2C(c2ccc3c(c2)C(=O)N(CCOCCOCCOCCNC(=O)CN(CCN(CC(=O)O)CC(=O)NCCOCCOCCOCCN2Cc4ccc(C5CN(C)Cc6c(Cl)cc(Cl)cc65)cc4C2=O)CC(=O)O)C3)C1 (centres unmarked)
(Q) Identify the item whose IC50 is the smaller number: A or B Write the label of whichever entry you select.
(A) B
